Values from PubChem BioAssay (NCATS)

protocol-text: qHTS assay for small molecule disruptors of the mitochondrial membrane potential - 1 hr assay (AID 651754); note: nearly all actives have a fitted effect of over 35% in size
measurement-setup: series mostly up to 92.2 µM
Records with an inconclusive call do not appear. Active and inactive are the calls of the source. Calls come from the whole dose curve.
Select the matching outcome among active, inactive

What is the recorded call for this molecule in the test? C=CCCC#N
inactive

Can you look up the reported call for CCC/C=N/O for me?
inactive

Hello, I am checking results. What call was entered for CCCCCc1cc(O)cc(O)c1 ?
active

So what was the verdict on N#CCBr in this test?
inactive

In this assay, the call recorded for CCN(CC)CCO was what?
inactive

Returns: the outcome recorded for O=[N+]([O-])c1ccccc1CCl in this assay.
inactive
